Procedure Summary: Stability of compound at pH 2
Type: physicochemical
Condition: buffer

>  <Smiles Notation>
CC(C)Cn1cc(C=O)c2ccccc21

>  <Stability>
Stable

$$$$
>  <Smiles Notation>
O=[N+]([O-])c1cccc(Cn2cc(CO)c3ccccc32)c1

>  <Stability>
Unstable

$$$$
>  <Smiles Notation>
OCc1cn(Cc2ccc(Cl)cc2Cl)c2ccccc12

>  <Stability>
Unstable

$$$$
>  <Smiles Notation>
OCc1cn(Cc2ccc(Cl)cc2)c2ccc(Cl)cc12

>  <Stability>
Unstable

$$$$
>  <Smiles Notation>
OCc1cn(Cc2cccc(F)c2)c2ccccc12

>  <Stability>
Unstable

$$$$
>  <Smiles Notation>
OCc1cn(Cc2ccc(Cl)cc2)c2ccc(F)cc12

>  <Stability>
Unstable

$$$$
>  <Smiles Notation>
OCc1cn(Cc2ccc(F)cc2)c2ccccc12

>  <Stability>
Unstable

$$$$
>  <Smiles Notation>
OCc1cn(Cc2ccc(Cl)cc2)c2cc(F)ccc12

>  <Stability>
Unstable

$$$$
>  <Smiles Notation>
O=Cc1cn(Cc2ccc(C(F)(F)F)cc2)c2ccccc12

>  <Stability>
Stable

$$$$
>  <Smiles Notation>
OCc1cn(Cc2cccc(C(F)(F)F)c2)c2ccccc12

>  <Stability>
Unstable

$$$$
>  <Smiles Notation>
OCc1cn(Cc2cccc(Cl)c2)c2ccccc12

>  <Stability>
Unstable

$$$$
>  <Smiles Notation>
O=Cc1cn(Cc2ccc(Cl)cc2)c2cc(Br)ccc12

>  <Stability>
Stable

$$$$
>  <Smiles Notation>
O=Cc1cn(Cc2cccc(Br)c2)c2ccccc12

>  <Stability>
Stable

$$$$
